# experimental.system: purified human Factor XIa (Homo sapiens (Human))
# assay.summary: biochemical
# Format: biochemical
# particulars: read-out: Factor XIa Ki
Structures can show the parent of a compound that is named as a salt.
property: pKi
Scale: negative log10 of molar concentration, which is what pKi denotes.

Example entries and their recorded answers appear below.
pKi lookup needed for "C[C@@H]1CCC[C@H](N2CCC(c3c(F)ccc(Cl)c3F)=CC2=O)c2cc(ccn2)-c2ccccc2NC1=O" , thanks.
7.86

pKi lookup needed for "C[C@@H]1CCC[C@H](N2CCC(c3c(F)ccc(Cl)c3F)=CC2=O)c2cc(ccn2)-c2cc(F)c(N)cc2NC1=O" , thanks.
8.88

pKi lookup needed for C[C@@H]1CCC[C@H](N2CCC(c3c(F)ccc(Cl)c3F)=CC2=O)c2cc(ccn2)-c2ccc(Nc3cccnn3)cc2NC1=O [Example 196, TFA salt] , thanks.
9.10

pKi lookup needed for C[C@@H]1CCC[C@H](N2CCC(c3c(-n4cnnn4)ccc(Cl)c3F)=CC2=O)c2cc(ccn2)-c2ccccc2NC1=O [Example 68, TFA salt] , thanks.
10.30

pKi lookup needed for C[C@@H]1CCC[C@H](N2CCC(c3c(-c4cn[nH]c4)ccc(Cl)c3F)=CC2=O)c2cc(ccn2)-c2ccccc2NC1=O [Example 55, TFA salt] , thanks.
8.56

New cases:
pKi lookup needed for C[C@@H]1CCC[C@H](N2CCC(c3c(F)ccc(Cl)c3F)=CC2=O)c2cc(ccn2)-c2ccc(Nc3cnccn3)cc2NC1=O [Example 93, TFA salt] , thanks.
8.85

pKi lookup needed for "COC(=O)Nc1ccc2c(c1)NC(=O)[C@H](C)CCC[C@H](N1CCC(c3cc(C)ccc3F)=CC1=O)c1cc-2ccn1" , thanks.
8.14

pKi lookup needed for COC(=O)Nc1ccc2c(c1)C(=O)NCCCC[C@H](N1CCC(c3c(F)ccc(Cl)c3F)=CC1=O)c1cc-2ccn1 [Example 24, TFA salt] , thanks.
6.57

pKi lookup needed for COC(=O)Nc1ccc2c(c1)C(=O)NCC/C=C/C[C@H](N1CCC(c3c(F)ccc(Cl)c3F)=CC1=O)c1cc-2ccn1 [Example 216, TFA salt] , thanks.
6.58

pKi lookup needed for C[C@@H]1CCC[C@H](N2CCC(c3cccc(Cl)c3F)=CC2=O)c2cc(ccn2)-c2ccccc2NC1=O [Example 47, TFA salt] , thanks.
7.06

pKi lookup needed for COC(=O)Nc1ccc2c(c1)NC(=O)[C@H](C)CCC[C@H](N1CCC(c3c(C)ccc(Cl)c3F)=CC1=O)c1cc-2ccn1 [Example 2, TFA salt] , thanks.
9.64

pKi lookup needed for COC(=O)Nc1ccc2c(c1)C(=O)NCCCCC[C@H](N1CCC(c3c(F)ccc(Cl)c3F)=CC1=O)c1cc-2ccn1 [Example 152, TFA salt] , thanks.
7.59

----------
# experimental.system: purified human Factor XIa (Homo sapiens (Human), UniProt P03951)
# Sequence (P03951 whole entry, looked up): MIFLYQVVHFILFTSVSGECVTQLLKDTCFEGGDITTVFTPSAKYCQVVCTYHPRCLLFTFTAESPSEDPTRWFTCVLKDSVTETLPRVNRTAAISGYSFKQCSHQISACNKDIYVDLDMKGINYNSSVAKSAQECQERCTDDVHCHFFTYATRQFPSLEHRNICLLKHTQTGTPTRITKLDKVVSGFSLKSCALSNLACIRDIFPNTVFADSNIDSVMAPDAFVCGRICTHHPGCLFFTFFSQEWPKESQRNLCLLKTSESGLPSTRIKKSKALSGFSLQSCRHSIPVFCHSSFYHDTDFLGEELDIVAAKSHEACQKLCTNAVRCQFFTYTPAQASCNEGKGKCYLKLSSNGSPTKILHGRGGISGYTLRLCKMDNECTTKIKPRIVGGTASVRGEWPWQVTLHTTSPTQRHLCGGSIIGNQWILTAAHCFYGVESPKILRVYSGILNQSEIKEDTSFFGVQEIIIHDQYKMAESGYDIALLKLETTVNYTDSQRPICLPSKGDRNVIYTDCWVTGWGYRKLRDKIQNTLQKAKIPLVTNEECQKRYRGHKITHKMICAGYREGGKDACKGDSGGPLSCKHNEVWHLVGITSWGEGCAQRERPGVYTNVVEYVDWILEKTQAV
# Sequence (P03951 whole entry partner, looked up): as the sequence (P03951 whole entry, looked up) above
# assay.summary: biochemical
# Format: biochemical
# particulars: read-out: Factor XIa Ki
Where a name gives a salt, the structure may show the parent alone.
property: pKi
Scale: negative log10 of molar concentration, which is what pKi denotes.

Example entries and their recorded answers appear below.
pKi lookup needed for C[C@@H]1CCC[C@H](N2CCC(c3c(C#N)ccc(Cl)c3F)=CC2=O)c2cc(ccn2)-c2ccc(C(N)=O)cc2NC1=O [Example 33, TFA salt] , thanks.
8.69

pKi lookup needed for C[C@@H]1CCC[C@H](N2CCC(c3c(F)ccc(Cl)c3F)=CC2=O)c2cc(ccn2)-c2ccc(Br)cc2NC1=O [Example 69, TFA salt] , thanks.
7.10

New cases:
pKi lookup needed for CC1CCC[C@H](N2CCC(c3cccc(Cl)c3F)=CC2=O)c2cc(ccn2)-c2ccc(C(N)=O)cc2NC1=O (stereo partly drawn) [Example 35, TFA salt] , thanks.
6.98

pKi lookup needed for C[C@@H]1CCC[C@H](N2CCC(c3c(F)cccc3C#N)=CC2=O)c2cc(ccn2)-c2ccccc2NC1=O [Example 50, TFA salt] , thanks.
6.99

pKi lookup needed for C[C@@H]1CCC[C@H](N2CCC(c3c(C#N)ccc(Cl)c3F)=CC2=O)c2cc(ccn2)-c2cc(F)ccc2NC1=O [Example 150] , thanks.
9.00

pKi lookup needed for COC(=O)Nc1ccc2c(c1)NC(=O)[C@H](C)CCC[C@H](N1CCC(c3cncc(Cl)c3)=CC1=O)c1cc-2ccn1 [Example 99, TFA salt] , thanks.
6.90

pKi lookup needed for Cc1nnc(Nc2ccc3c(c2)NC(=O)[C@H](C)CCC[C@H](N2CCC(c4c(F)ccc(Cl)c4F)=CC2=O)c2cc-3ccn2)o1 [Example 21, TFA salt] , thanks.
9.34

pKi lookup needed for C[C@@H]1CCC[C@H](N2CCC(c3c(F)ccc(Cl)c3F)=CC2=O)c2cc(ccn2)-c2cc3ccc(=O)[nH]c3cc2NC1=O [Example 81, TFA salt] , thanks.
9.51

----------
# experimental.system: purified human Factor XIa (Homo sapiens (Human))
# assay.summary: biochemical
# Assay type: biochemical
# particulars: read-out: Factor XIa Ki
Where a name gives a salt, the structure may show the parent alone.
property: Ki

Ki lookup needed for C[C@@H]1CCC[C@H](N2CCC(c3c(F)ccc(Cl)c3F)=CC2=O)c2cc(ccn2)-c2cc3c(O)cc(=O)[nH]c3cc2NC1=O [Example 199, TFA salt] , thanks.
< 0.05 nM

Ki lookup needed for COC(=O)Nc1ccc2c(c1)NC(=O)[C@H](C)CCC[C@H](N1CCC(c3ccnc(N)c3)=CC1=O)c1cc-2ccn1 [Example 154, TFA salt] , thanks.
23.6 nM

For the next question, use this molecule.
Ki lookup needed for C[C@@H]1CCC[C@H](N2CCC(c3c(F)ccc(Cl)c3F)=CC2=O)c2cc(ccn2)-c2ccc(NS(C)(=O)=O)cc2NC1=O [Example 76, TFA salt] , thanks.
7.89 nM

----------
Item-by-item account of Ki
# experimental.system: purified human Factor XIa (Homo sapiens (Human), UniProt P03951)
# assay.summary: biochemical
# Type: biochemical
# particulars: read-out: Factor XIa Ki
Counter-ions that a name gives are not always drawn.
Give the value in nM but do not write nM after it.

Give Ki (purified human Factor XIa (Homo sapiens (Human), UniProt P03951)) of the following compound: C[C@@H]1CCC[C@H](N2CCC(c3c(Br)ccc(Cl)c3F)=CC2=O)c2cc(ccn2)-c2ccccc2NC1=O [Example 45, TFA salt]
2.08

New cases:
Give Ki (purified human Factor XIa (Homo sapiens (Human), UniProt P03951)) of the following compound: CC1CCC[C@H](N2CCC(c3c(Br)ccc(Cl)c3F)=CC2=O)c2cc(ccn2)-c2ccc(-c3nnc[nH]3)cc2NC1=O (stereo partly drawn) [Example 38, TFA salt]
2.77

----------
# experimental.system: purified human Factor XIa (Homo sapiens (Human))
# assay.summary: biochemical
# Format: biochemical
Counter-ions that a name gives are not always drawn.
property: pKi
Scale: negative log10 of molar concentration, which is what pKi denotes.

pKi lookup needed for COC(=O)Nc1ccc2c(c1)NC(=O)[C@H](C)CCC[C@H](N1CC(C)C(c3c(F)ccc(Cl)c3F)=CC1=O)c1cc-2ccn1 (single isomer, unassigned; isomer 1) , thanks.
9.10

pKi lookup needed for COC(=O)Nc1ccc2c(c1)NC(=O)C(C)(O)CCC[C@H](N1CCC(c3c(F)ccc(Cl)c3F)=CC1=O)c1cc-2ccn1 (single isomer, unassigned) [Example 124, TFA salt] , thanks.
6.46

New cases:
pKi lookup needed for "C[C@@H]1CCC[C@H](n2ccc(-c3c(F)ccc(Cl)c3F)cc2=O)c2cc(ccn2)-c2ccncc2NC1=O" , thanks.
7.64

----------
# experimental.system: purified human Factor XIa (Homo sapiens (Human), UniProt P03951)
# assay.summary: biochemical
# Type: biochemical
# particulars: TFA salt; read-out: Factor XIa Ki
Where a name gives a salt, the structure may show the parent alone.
Item-by-item account of Ki
Just so you know, I need the unit written after the number.

Ki lookup needed for COC(=O)Nc1ccc2c(c1)NC(=O)[C@H](C)CCC[C@H](N1CCC(C3CCCC(C)C3)=CC1=O)c1cc-2ccn1 (single isomer, unassigned) [Example 218, TFA salt] , thanks.
38.2 nM

Ki lookup needed for COC(=O)Nc1ccc2c(c1)NC(=O)[C@H](C)CCC[C@H](N1CCC(C3CCCC(C)C3)=CC1=O)c1cc-2ccn1 (single isomer, unassigned) [Example 153, TFA salt] , thanks.
20 nM

Ki lookup needed for COC(=O)Nc1ccc2c(c1)NC(=O)[C@H](C)CCC[C@H](N1CCC(C3CCCC(C)C3)=CC1=O)c1cc-2ccn1 (single isomer, unassigned) [Example 226, TFA salt] , thanks.
24.6 nM

New cases:
Ki lookup needed for CC1CCCC(N2CCC(c3c(F)ccc(Cl)c3F)=CC2=O)c2cc(ccn2)-c2ccc(C#N)cc2NC1=O (stereo in doubt) [Example 23, TFA salt] , thanks.
93.2 nM

Ki lookup needed for COC(=O)Nc1ccc2c(c1)NC(=O)[C@H](C)CCC[C@H](N1CCC(C3CCCC(C)C3)=CC1=O)c1cc-2ccn1 (single isomer, unassigned) [Example 225, TFA salt] , thanks.
26.1 nM
